Molecular target: Autotaxin (ENPP2, NPP2) (Homo sapiens)
Assay: inhibition
Conditions: 2'-F pyrimidines, 2'-OH purines
pIC50: −log10 of the molar value.
Listed here: items and their measured pIC50.

# query sequence, system tested, pIC50
measured = [
    ("CGGAUACGUCUCACUUCGUCNNNNNNNNNNNNNNNNNNNNNNNNNNNNNNCAGAGCGUUUAGAGUGCGGUCCC [30N RNA pool]", "Autotaxin (ENPP2, NPP2) (Homo sapiens)", "< 6.00"),
    ("GUACGAAGACGCAUCUCACNNNNNNNNNNNNNNNNNNNNNNNNNNNNNNNNNNNNNNNNGUUCCAUGUCCUGUUGCCACCC [40N RNA pool]", "Autotaxin (ENPP2, NPP2) (Homo sapiens)", "< 6.00"),
]
